System name: UniProtKB Q99572
Assay overview: Ca2+ flux (FLIPR) in 1321N1 cells expressing recombinant human P2X7 channel;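 note: Calcium-4 dye-loaded cells exposed to compound for 30 min before agonist addition, fluorescence change read 180 s after agonist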
Format: cell-based
Conditions used: 250 μM BzATP
Would you kindly list pIC50 for each of these molecules?
Answers are plain numbers, as −log10 of the molar value.

Completed entries (count: 4):
> print(dat)
                                   molecule  readout.number
1  CCC1c2ncn(-c3cnccn3)c2C=CN1C(=O)c1cccc(C(F)(F)F)c1Cl (centres unmarked)            7.78
2  O=C(c1cccc(C(F)(F)F)c1Cl)N1CCc2c(nnn2-c2ncc(F)cn2)C1            7.84
3  O=C(c1cccc(C(F)(F)F)c1F)N1CCc2c(nnn2-c2cnccn2)C1            6.98
4  O=C(c1ccc(Cl)cc1F)N1CCc2c(nnn2-c2ccccn2)C1            6.44

Hey, can you go through the list below and give me pIC50 for every item?
1. CC1c2nnn(-c3cnccn3)c2CCN1C(=O)c1cccc(C(F)(F)F)c1F (centres unmarked)
2. Cc1cccc(-n2nnc3c2CCN(C(=O)c2cccc(C(F)(F)F)c2Cl)C3C)n1 (centres unmarked)
3. O=C(c1cccc(C(F)(F)F)c1Cl)N1C=Cc2c(nnn2-c2cnccn2)C1
4. O=C(c1cccc(C(F)(F)F)c1Cl)N1CCc2c(-c3ccc(F)cn3)n[nH]c2C1

1: 8.12; 2: 7.94; 3: 8.26; 4: 7.91

* * *

System name: P2X7 (Homo sapiens (Human), UniProt Q99572)
Sequence (Q99572 whole entry): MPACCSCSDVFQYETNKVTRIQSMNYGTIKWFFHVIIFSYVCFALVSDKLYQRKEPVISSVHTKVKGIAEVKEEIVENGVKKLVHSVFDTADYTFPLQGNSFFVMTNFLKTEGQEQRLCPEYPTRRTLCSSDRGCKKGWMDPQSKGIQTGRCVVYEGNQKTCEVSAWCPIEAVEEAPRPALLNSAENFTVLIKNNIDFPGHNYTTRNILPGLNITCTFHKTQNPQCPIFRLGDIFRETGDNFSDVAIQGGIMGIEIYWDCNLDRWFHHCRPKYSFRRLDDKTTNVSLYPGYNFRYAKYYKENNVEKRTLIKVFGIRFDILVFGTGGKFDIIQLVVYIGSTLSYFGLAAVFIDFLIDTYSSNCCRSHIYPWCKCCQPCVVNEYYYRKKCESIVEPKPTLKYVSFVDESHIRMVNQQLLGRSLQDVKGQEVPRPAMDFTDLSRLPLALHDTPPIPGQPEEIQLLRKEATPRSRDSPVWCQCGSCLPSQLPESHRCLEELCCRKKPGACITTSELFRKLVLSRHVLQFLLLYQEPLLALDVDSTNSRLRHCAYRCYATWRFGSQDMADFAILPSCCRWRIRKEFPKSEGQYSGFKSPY
Assay overview: P2X7 antagonism in human PBMCs (LPS + Bz-ATP induced IL-1β release, ELISA)
Type: cell-based
Conditions used: compound 1 μM, LPS 30 ng/ml, Bz-ATP 0.5 mM
Binary label based on PBMC 1 μM (% control) with cut-off 90 % control: below gives 1, not below gives -1.

Observe how each entry below is paired with its result.
> print(dat)
                                   molecule  label.class
1  Cn1nc2c(c1-c1ccncc1)CCN(C(=O)c1cccc(C(F)(F)F)c1Cl)C2 [Example 327]           -1
2  O=C(c1cccc2c1OC(F)(F)O2)N1CCc2c(ncn2-c2ccccc2)C1 [Example 50]           -1
3  CN(C)C(=O)C1c2ncn(-c3ccccn3)c2CCN1C(=O)c1cccc(C(F)(F)F)c1Cl (centres unmarked) [Example 34]            1

Bench note: check whether O=C(c1cccc(Cl)c1Cl)N1CCc2c(-c3ccc(F)cc3)n[nH]c2C1 [Example 114] shows PBMC 1 μM (% control) below 90 % control
1

Consider the molecule O=C(c1cccc(C(F)(F)F)c1Cl)N1C=Cc2c(ncn2-c2ccccc2)C1 [Example 49] . Is its PBMC 1 μM (% control) strictly less than 90 % control?
-1

* * *

Record form. Attribute: PBMC 10 μM (% control). Fill in for each entry.
System name: P2X7 (Homo sapiens (Human), UniProt Q99572)
Assay overview: P2X7 antagonism in human PBMCs (LPS + Bz-ATP induced IL-1β release, ELISA);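 note: PBMCs from donor human blood, with a further 1.5 h incubation of the cells in the assay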
Format: cell-based
Conditions used: compound 10 μM, LPS 30 ng/ml, Bz-ATP 0.5 mM
Answers are plain numbers, in % control.

Use the examples below as a reference point.
> print(dat)
                                   compound            measure.name  readout.number
1  O=C(c1ccc(Cl)cc1Cl)N1CCc2c(ncn2-c2ccc(F)cn2)C1 [Example 313]  PBMC 10 μM (% control)            −5.4
2  C[C@H]1c2ncn(-c3ccc(F)cn3)c2CCN1C(=O)c1cccc(C(F)(F)F)c1Cl (stereo in doubt) [Example 41]  PBMC 10 μM (% control)            40.5

Dear reader, for each entry below, please note its PBMC 10 μM (% control).
1. C[C@@H]1c2n[nH]c(-c3ncc(F)cn3)c2CCN1C(=O)c1cccc(C(F)(F)F)c1Cl (single isomer, unassigned) [Example 223]
2. C[C@@H]1c2ncn(-c3ccc(F)cc3)c2CCN1C(=O)c1cccc(C(F)(F)F)c1Cl (single isomer, unassigned) [Example 46]
3. C[C@H]1c2nnn(-c3cncnc3)c2CCN1C(=O)c1cccc(C(F)(F)F)c1Cl [Example 333]
4. C[C@@H]1c2nnn(-c3cnccn3)c2CCN1C(=O)c1ccc(F)c(Cl)c1Cl (single isomer, unassigned) [Example 143]
5. C[C@H]1Cc2c(nnn2-c2ncc(F)cn2)CN1C(=O)c1ccc(Cl)cc1F [Example 156]
6. C[C@H]1Cc2c(nnn2-c2ccccc2)CN1C(=O)c1cccc(C(F)(F)F)c1Cl [Example 288]

1: 1.8; 2: 2.1; 3: 6.9; 4: 58.0; 5: 1.8; 6: 4.4

# per-item lookup of PBMC 10 μM (% control); items listed below
1. CC1Cc2c(nnn2-c2ccc(F)cc2)C(C)N1C(=O)c1cccc(Cl)c1Cl (stereo not drawn) [Example 242]
2. Cc1cc(C)nc(-n2nnc3c2CCN(C(=O)c2cccc(C(F)(F)F)c2Cl)[C@@H]3C)n1 (single isomer, unassigned) [Example 181]
3. C[C@H]1Cc2c(nnn2-c2ncccn2)CN1C(=O)c1cccc(C(F)(F)F)c1Cl (single isomer, unassigned) [Example 222]
4. O=C(c1ccc(F)cc1Cl)N1CCc2c(nnn2-c2ccccn2)C1 [Example 117]

["−3.4", "−0.1", 11.8, 4.3]

Batch: PBMC 10 μM (% control) for all items listed.
1. Cc1cccnc1-n1nnc2c1CCN(C(=O)c1cccc(C(F)(F)F)c1Cl)[C@H]2C (single isomer, unassigned) [Example 292]
2. C[C@@H]1Cc2c(nnn2-c2ccn[nH]2)[C@@H](C)N1C(=O)c1cccc(C(F)(F)F)c1Cl [Example 296]
3. CC1c2nnn(-c3cnccn3)c2CCN1C(=O)c1ccc(Cl)cc1Cl (stereo not drawn) [Example 279]
4. O=C(c1cccc(C(F)(F)F)c1Cl)N1CCc2[nH]cnc2C1C(F)(F)F (stereo not drawn) [Example 39]
5. C[C@H]1Cc2c(nnn2-c2ncc(F)cn2)CN1C(=O)c1ccnc(C(F)(F)F)c1F (single isomer, unassigned) [Example 228]
6. O=C(c1ccc(F)c(Cl)c1Cl)N1CCc2c(nnn2-c2ccccn2)C1 [Example 130]
7. Cc1nc(-n2nnc3c2CCN(C(=O)c2cccc(C(F)(F)F)c2Cl)C3C)ncc1F (single isomer, unassigned) [Example 306]

1. 36.7
2. 3.6
3. −16.9
4. 112.0
5. 0.1
6. 3.7
7. 2.5

Hey, quick one: what's PBMC 10 μM (% control) for each of these?
1. CC1Cc2c(nnn2-c2ccccn2)CN1C(=O)c1ccc(F)c(Cl)c1Cl (stereo not drawn) [Example 121]
2. Cc1ccnc(-n2nnc3c2CCN(C(=O)c2cccc(C(F)(F)F)c2Cl)[C@H]3C)c1 (single isomer, unassigned) [Example 186]
3. C[C@@H]1Cc2c(nnn2-c2ccn[nH]2)[C@@H](C)N1C(=O)c1cccc(C(F)(F)F)c1Cl [Example 320]
4. Cc1c(C(=O)N2CCc3c(nnn3-c3ccccn3)C2)ccc(F)c1F [Example 132]
5. O=C(c1cccc(C(F)(F)F)c1Cl)N1CCc2c(-c3cccnc3)n[nH]c2C1 [Example 96]
6. Cc1cncc(-n2nnc3c2CCN(C(=O)c2cccc(C(F)(F)F)c2Cl)C3C)n1 (stereo not drawn) [Example 251]
7. CCOc1cccnc1-n1nnc2c1CCN(C(=O)c1cccc(C(F)(F)F)c1Cl)C2C (stereo not drawn) [Example 258]

1. −0.2
2. −0.5
3. −19.7
4. 3.8
5. 3.6
6. 11.6
7. −3.2

* * *

Please respond with reported IC50 for every item in the list.
System name: rat P2X7 (Rattus norvegicus (Rat), UniProt Q64663)
Sequence (Q64663 whole entry): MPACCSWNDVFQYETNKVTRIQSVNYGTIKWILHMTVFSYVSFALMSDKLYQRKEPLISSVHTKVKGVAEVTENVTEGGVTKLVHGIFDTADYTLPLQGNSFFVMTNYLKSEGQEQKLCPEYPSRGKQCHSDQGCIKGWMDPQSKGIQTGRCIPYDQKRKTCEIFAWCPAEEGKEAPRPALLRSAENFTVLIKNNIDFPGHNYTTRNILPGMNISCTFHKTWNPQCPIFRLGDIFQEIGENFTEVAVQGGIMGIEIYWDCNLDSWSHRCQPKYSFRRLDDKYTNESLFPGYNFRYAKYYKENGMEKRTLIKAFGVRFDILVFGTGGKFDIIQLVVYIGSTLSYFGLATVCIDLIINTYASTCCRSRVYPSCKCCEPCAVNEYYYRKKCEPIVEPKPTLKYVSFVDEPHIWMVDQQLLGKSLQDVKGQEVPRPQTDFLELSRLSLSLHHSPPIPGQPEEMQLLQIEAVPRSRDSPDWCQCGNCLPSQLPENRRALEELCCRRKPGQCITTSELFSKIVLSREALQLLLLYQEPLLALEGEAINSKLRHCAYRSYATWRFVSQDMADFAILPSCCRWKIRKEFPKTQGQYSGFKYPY
Assay overview: Ca2+ flux (FLIPR) in 1321N1 cells expressing recombinant rat P2X7 channel;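 note: Calcium-4 dye fluorescence change read 180 s after agonist addition, following 30 min cell preincubation with test compound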
Conditions used: 250 μM BzATP
Give bare numbers, in nM.

> print(dat)
                                   compound                               system.name  readout.number
1  Cc1ccc(-n2nnc3c2CCN(C(=O)c2cccc(Cl)c2Cl)C3C)nc1 (stereo not shown)  rat P2X7 (Rattus norvegicus (Rat), UniProt Q64663)            2160
2  O=C(c1cccc(C(F)(F)F)c1Cl)N1CCc2c(nnn2-c2ccccn2)C1  rat P2X7 (Rattus norvegicus (Rat), UniProt Q64663)            1090
3  CCOc1cccnc1-n1nnc2c1CCN(C(=O)c1cccc(C(F)(F)F)c1Cl)C2C (stereo not shown)  rat P2X7 (Rattus norvegicus (Rat), UniProt Q64663)            4840

Provide reported IC50 for each item, in the same order as listed.
1. CCCOc1cccnc1-n1nnc2c1CCN(C(=O)c1cccc(C(F)(F)F)c1Cl)C2C (stereo not shown)
2. Cc1c(C(=O)N2CCc3c(nnn3-c3cnccn3)C2C)cccc1C(F)(F)F (stereo not shown)
3. CC1c2nnn(-c3cnccn3)c2CCN1C(=O)c1ccc(Cl)cc1F (stereo not shown)
4. O=C(c1cccc(C(F)(F)F)c1Cl)N1CCc2c(nnn2-c2cnccn2)C1c1ccccc1 (stereo not shown)
5. Cc1nc(-n2nnc3c2CCN(C(=O)c2cccc(C(F)(F)F)c2Cl)[C@@H]3C)ncc1F (single isomer, unassigned)

[428, 92.3, 1880, 6.3, 19.7]

For the 3 compounds below, give their IC50 values.
1. CCOC(=O)C1c2ncn(-c3ccccn3)c2CCN1C(=O)c1cccc(Cl)c1Cl (stereo not shown)
2. CC1c2ncn(-c3ccc(F)cn3)c2C=CN1C(=O)c1cccc(C(F)(F)F)c1Cl (stereo not shown)
3. CCOc1cccnc1-n1nnc2c1CCN(C(=O)c1cccc(C(F)(F)F)c1Cl)[C@@H]2C (single isomer, unassigned)

3270
589
2210

Specify IC50 for COc1ccnc(-n2nnc3c2CCN(C(=O)c2cccc(C(F)(F)F)c2Cl)C3)c1 and stop.
133
